These measurements were taken from patent US5369112A.

- assayOverview: Hydroxy radical scavenging activity (H2O2-(Fe^2+-DTPA), DMPO spin trapping, ESR)
- Assay type: biochemical
- conditionDetails: Example 3, Table 8; pH 7.3; read-out: .OH scavenging activity IC50
- Description: Activity of PQQ esters to scavenge hydroxy radical (·OH) produced in the system of H2 O2 --(Fe^2+ -DTPA) was examined by spin trapping method [using 5,5-dimethyl-1-pyrroline-N-oxide (hereinafter referred to as "DMPO") as a spin trapping agent] where electron spin resonance (hereinafter referred to as "ESR") was used. DTPA means diethylenetriamine-pentaacetic acid. H2 O2 +Fe^2 -DTPA complex→·OH+OH^- […]
reportedProperty: IC50 (µM)
The figure you give is taken to be in µM; do not add the unit.

Study these solved cases before continuing.
> print(dat)
                                   compound  displayunit  quantitativereadout
1  C=CCOC(=O)c1cc(C(=O)OCC=C)c2c(n1)C(=O)C(=O)c1cc(C(=O)OCC=C)[nH]c1-2 [PQQ triallyl ester]           µM                   42
2  O=C(OCc1ccccc1)c1cc(C(=O)OCc2ccccc2)c2c(n1)C(=O)C(=O)c1cc(C(=O)OCc3ccccc3)[nH]c1-2 [PQQ tribenzyl ester]           µM                   31

// next entry
QUERY: Can you look up the measured IC50 of O=C(O)c1cc(C(=O)O)c2c(n1)C(=O)C(=O)c1cc(C(=O)O)[nH]c1-2 [PQQ.2Na, reference compound] for me?
RESULT: 64

###

This listing pairs molecules with measured Glucose.
- System: mice
- assayOverview: Kidney Toxicity Determined by Blood Examination (1)
- Format: in vivo
- conditionDetails: mouse serum, 40 mg/kg
# include the unit after the value

Study these solved cases before continuing.
molecule	targetDesc	reportedProperty	result
CSCCc1nc2c3nc(C(=O)O)cc(C(=O)O)c3c3[nH]c(C(=O)O)cc3c2o1 [2-Methylthioethyl OPQ, 2-methylthioethyl OPQ (R= CH2 CH2 SCH3)]	mice	Glucose	96 ± 26 mg/dL
O=C(O)c1cc(C(=O)O)c2c(n1)c1nc(Cc3ccccc3)oc1c1cc(C(=O)O)[nH]c12	mice	Glucose	90 ± 24 mg/dL

QUERY: Can you look up the measured Glucose of C=CCOC(=O)c1cc(C(=O)OCC=C)c2c(n1)C(=O)C(=O)c1cc(C(=O)OCC=C)[nH]c1-2 for me?
RESULT: 42 ± 6 mg/dL

QUERY: Can you look up the measured Glucose of CCC(C)c1nc2c3nc(C(=O)O)cc(C(=O)O)c3c3[nH]c(C(=O)O)cc3c2o1 (centres unmarked) [1-Methylpropyl OPQ, 1-methylpropyl OPQ (R=CH(CH3)CH2 CH3)] for me?
RESULT: 87 ± 20 mg/dL

QUERY: Can you look up the measured Glucose of O=C(O)c1cc(C(=O)O)c2c(n1)c1ncoc1c1cc(C(=O)O)[nH]c12 for me?
RESULT: 90 ± 18 mg/dL

###

- assayOverview: Superoxide scavenging activity (hypoxanthine-xanthine oxidase, DMPO spin trapping, ESR)
- Assay type: biochemical
- conditionDetails: Example 2, Table 7; pH 7.3; read-out: O2^- scavenging activity IC50
reportedProperty: pIC50
pIC50 is defined as minus the log10 of a concentration measured in mol/L.

Study these solved cases before continuing.
> print(dat)
                                   compound  reportedproperty  quantitativereadout
1  C=CCOC(=O)c1cc(C(=O)OCC=C)c2c(n1)c1ncoc1c1cc(C(=O)OCC=C)[nH]c12             pIC50                 5.62
2  O=C(O)c1cc(C(=O)O)c2c(n1)c1ncoc1c1cc(C(=O)O)[nH]c12             pIC50                 5.91
3  O=C(O)CCc1nc2c3nc(C(=O)O)cc(C(=O)O)c3c3[nH]c(C(=O)O)cc3c2o1 [2-Carboxyethyl OPQ, 2-carboxyethyl OPQ (R=CH2 CH2 CO2 H)]             pIC50                 5.53
4  O=C(O)c1cc(C(=O)O)c2c(n1)c1nc(CO)oc1c1cc(C(=O)O)[nH]c12 [Hydroxymethyl OPQ, hydroxymethyl OPQ (R=CH2 OH)]             pIC50                 5.45
5  Cc1nc2c3nc(C(=O)O)cc(C(=O)O)c3c3[nH]c(C(=O)O)cc3c2o1 [Methyl OPQ, methyl OPQ (R=CH3)]             pIC50                 5.79

// next entry
QUERY: Can you look up the measured pIC50 of CSCCc1nc2c3nc(C(=O)O)cc(C(=O)O)c3c3[nH]c(C(=O)O)cc3c2o1 [2-Methylthioethyl OPQ, 2-methylthioethyl OPQ (R= CH2 CH2 SCH3)] for me?
RESULT: 5.40

###

- Test system: mice
- assayOverview: Kidney Toxicity Determined by Blood Examination (1)
- Type: in vivo
- conditionDetails: mouse serum, 200 mg/kg
reportedProperty: Urea nitrogen (mg/dL)
The figure you give is taken to be in mg/dL; do not add the unit.

Study these solved cases before continuing.
compound	targetDesc	Urea nitrogen, mg/dL
CCC(C)c1nc2c3nc(C(=O)O)cc(C(=O)O)c3c3[nH]c(C(=O)O)cc3c2o1 (centres unmarked) [1-Methylpropyl OPQ, 1-methylpropyl OPQ (R=CH(CH3)CH2 CH3)]	mice	27
O=C(O)c1cc(C(=O)O)c2c(n1)c1nc(Cc3ccccc3)oc1c1cc(C(=O)O)[nH]c12	mice	25
CSCCc1nc2c3nc(C(=O)O)cc(C(=O)O)c3c3[nH]c(C(=O)O)cc3c2o1 [2-Methylthioethyl OPQ, 2-methylthioethyl OPQ (R= CH2 CH2 SCH3)]	mice	26
C=CCOC(=O)c1cc(C(=O)OCC=C)c2c(n1)C(=O)C(=O)c1cc(C(=O)OCC=C)[nH]c1-2	mice	9

QUERY: Can you look up the measured Urea nitrogen of O=C(O)c1cc(C(=O)O)c2c(n1)c1ncoc1c1cc(C(=O)O)[nH]c12 for me?
RESULT: 28

###

- Test system: mice
- assayOverview: Kidney Toxicity Determined by Blood Examination (1)
- Type: in vivo
- conditionDetails: mouse serum, 40 mg/kg
- Experimental: After lapse of one day from the administration, the mice were fasted (with feeding only water) and then after 18 hours, blood was collected and serum was obtained therefrom. Glucose, urea nitrogen and creatinine in the serum were examined by clinical examination reagent (trademark: FUJI DRYCHEMSLIDE manufactured by Fuji Photo Film Co., Ltd.).
reportedProperty: Creatinine (mg/dL)
The figure you give is taken to be in mg/dL; do not add the unit.

Study these solved cases before continuing.
compound	displayUnit	quantitativeReadout
O=C(O)c1cc(C(=O)O)c2c(n1)c1nc(Cc3ccccc3)oc1c1cc(C(=O)O)[nH]c12	mg/dL	0.68
CCC(C)c1nc2c3nc(C(=O)O)cc(C(=O)O)c3c3[nH]c(C(=O)O)cc3c2o1 (centres unmarked) [1-Methylpropyl OPQ, 1-methylpropyl OPQ (R=CH(CH3)CH2 CH3)]	mg/dL	0.80
C=CCOC(=O)c1cc(C(=O)OCC=C)c2c(n1)C(=O)C(=O)c1cc(C(=O)OCC=C)[nH]c1-2	mg/dL	0.3
CSCCc1nc2c3nc(C(=O)O)cc(C(=O)O)c3c3[nH]c(C(=O)O)cc3c2o1 [2-Methylthioethyl OPQ, 2-methylthioethyl OPQ (R= CH2 CH2 SCH3)]	mg/dL	0.76

QUERY: Can you look up the measured Creatinine of O=C(O)c1cc(C(=O)O)c2c(n1)c1ncoc1c1cc(C(=O)O)[nH]c12 for me?
RESULT: 0.70

###

This listing pairs molecules with measured Creatinine.
- System: mice
- assayOverview: Kidney Toxicity Determined by Blood Examination (1)
- Format: in vivo
- conditionDetails: mouse serum, 160 mg/kg
The figure you give is taken to be in mg/dL; do not add the unit.

QUERY: Can you look up the measured Creatinine of CCC(C)c1nc2c3nc(C(=O)O)cc(C(=O)O)c3c3[nH]c(C(=O)O)cc3c2o1 (centres unmarked) [1-Methylpropyl OPQ, 1-methylpropyl OPQ (R=CH(CH3)CH2 CH3)] for me?
RESULT: 0.78

QUERY: Can you look up the measured Creatinine of CSCCc1nc2c3nc(C(=O)O)cc(C(=O)O)c3c3[nH]c(C(=O)O)cc3c2o1 [2-Methylthioethyl OPQ, 2-methylthioethyl OPQ (R= CH2 CH2 SCH3)] for me?
RESULT: 0.64

QUERY: Can you look up the measured Creatinine of O=C(O)c1cc(C(=O)O)c2c(n1)c1nc(Cc3ccccc3)oc1c1cc(C(=O)O)[nH]c12 for me?
RESULT: 0.68

QUERY: Can you look up the measured Creatinine of C=CCOC(=O)c1cc(C(=O)OCC=C)c2c(n1)C(=O)C(=O)c1cc(C(=O)OCC=C)[nH]c1-2 for me?
RESULT: 0.1

QUERY: Can you look up the measured Creatinine of O=C(O)c1cc(C(=O)O)c2c(n1)c1ncoc1c1cc(C(=O)O)[nH]c12 for me?
RESULT: 0.73
